# Assay summary: Human HepG2 cell viability assay in 384 well format
# Assay type: toxicity, cell-based
# Design: dose 125 nL, time 70.5 hour; concentration not given beside the values
# Conditions used: HepG2 cells, read-out: Inhibition
Please respond with reported cytotoxicity at 70.5 h for every item in the list.
Numeric only. Scale: %

Ask | May I ask what cytotoxicity at 70.5 h has been recorded for Cc1noc(C(C)N2CCN(CCCN3CCCC3=O)CC2)n1 (stereo not drawn) ?
Reply | -11.4

Ask | May I ask what cytotoxicity at 70.5 h has been recorded for `CS(=O)(=O)NCc1cc(-c2cc(F)cc(F)c2)nc(N2CC[C@H](O)C2)n1` ?
Reply | -10.5

Ask | May I ask what cytotoxicity at 70.5 h has been recorded for `CC(C)Oc1ccc(C(=O)N2CC[C@H](O)[C@@H](n3ccnc3)CC2)cc1` ?
Reply | 18.5

Ask | May I ask what cytotoxicity at 70.5 h has been recorded for `CCN(CC)S(=O)(=O)N1CC[C@H](c2ccccc2)[C@H]2NCCCC[C@H]21` ?
Reply | -3.25

Ask | May I ask what cytotoxicity at 70.5 h has been recorded for `Cc1nc(COC[C@@H]2CC[C@H]3[C@H](CCN3c3ccccn3)O2)cs1` ?
Reply | -90.1

Ask | May I ask what cytotoxicity at 70.5 h has been recorded for `O=C(c1ccnnc1)N1C[C@@H]2C[C@@H](c3nc(C4CC4)cs3)O[C@@H]2C1` ?
Reply | -3.56

Ask | May I ask what cytotoxicity at 70.5 h has been recorded for `Cn1cc(C(=O)Nc2ccnc(Oc3ccccc3)c2)ccc1=O` ?
Reply | -5.49

Ask | May I ask what cytotoxicity at 70.5 h has been recorded for `COc1ccccc1OCc1cc(C(=O)N2[C@H](C)CC[C@@H]2C)n[nH]1` ?
Reply | -6.18

Ask | May I ask what cytotoxicity at 70.5 h has been recorded for `Cn1c2c(c(=O)n1C)CN(C(=O)c1ccco1)CCC2` ?
Reply | 12.8

Ask | May I ask what cytotoxicity at 70.5 h has been recorded for `N#Cc1ccc(C(=O)N2CCc3c(COCC4CC4)cncc3C2)cc1` ?
Reply | -5.21

Ask | May I ask what cytotoxicity at 70.5 h has been recorded for `COc1cc(N2CC[C@H]3OCC[C@@]3(COc3nccc(C)n3)C2)ncn1` ?
Reply | -17.3

Ask | May I ask what cytotoxicity at 70.5 h has been recorded for C[S+]([O-])c1nncn1CCCc1ccc(Cl)cc1 (stereo not drawn) ?
Reply | -2.94

Ask | May I ask what cytotoxicity at 70.5 h has been recorded for COCC1CN(C(=O)COc2ccc(C)cc2)Cc2cn(C)nc21 (stereo not drawn) ?
Reply | -2.9

----------
# Assay summary: Human HepG2 cell viability assay in 384 well format
# Type: toxicity, cell-based
# Design: dose 125 nL, time 70.5 hour; concentration not given beside the values
# Conditions used: HepG2 cells, read-out: Inhibition
Please respond with reported cytotoxicity at 70.5 h for every item in the list.

Ask | May I ask what cytotoxicity at 70.5 h has been recorded for N#CCCN(c1ccc(F)cc1)S(=O)(=O)CC1CCCCO1 (configuration not stated) ?
Reply | -1.6%

Ask | May I ask what cytotoxicity at 70.5 h has been recorded for `Cc1noc(C)c1Cc1nc(C2CC2)no1` ?
Reply | -2.18%

Ask | May I ask what cytotoxicity at 70.5 h has been recorded for `COc1ccc(Cl)cc1CC(=O)N1CCN(CC(C)(C)O)CC1` ?
Reply | -3.48%

Ask | May I ask what cytotoxicity at 70.5 h has been recorded for `COCc1cccc(C(=O)N2CCCC2)c1` ?
Reply | 4.08%

Ask | May I ask what cytotoxicity at 70.5 h has been recorded for COc1cccc2c1OCC(C(=O)N1CCSCC1)C2 (configuration not stated) ?
Reply | -8.37%

Ask | May I ask what cytotoxicity at 70.5 h has been recorded for O=C(c1ccccc1)N1CCCC(Nc2ccc(F)cc2)C1 (configuration not stated) ?
Reply | -1.68%

Ask | May I ask what cytotoxicity at 70.5 h has been recorded for COCC(=O)N1CCN(c2ccc(C(=O)OC)cc2)CC1C (configuration not stated) ?
Reply | 20.1%

Ask | May I ask what cytotoxicity at 70.5 h has been recorded for CC(C)C(=O)N1CCN(Cc2cnn(C)c2)CC2(CC(=O)N(C)C2)C1 (configuration not stated) ?
Reply | -13.2%

Ask | May I ask what cytotoxicity at 70.5 h has been recorded for `Cc1nc(CN2C[C@@H]3CN(C(=O)c4cccn4C)C[C@@H]3C2)cs1` ?
Reply | -6.14%

Ask | May I ask what cytotoxicity at 70.5 h has been recorded for `Cc1oc(-c2ccsc2)nc1CC(=O)NCCCS(C)(=O)=O` ?
Reply | 15.4%

Ask | May I ask what cytotoxicity at 70.5 h has been recorded for `CCOc1ccc(CNC(=O)c2cnc(OC)nc2)cc1` ?
Reply | -2.49%

Ask | May I ask what cytotoxicity at 70.5 h has been recorded for `CCN(C(=O)Cc1ccc(NCc2nccn2C)cc1)c1ccccc1` ?
Reply | -6.33%

Ask | May I ask what cytotoxicity at 70.5 h has been recorded for `Cn1cc(CN2CCC3(CC2)C(=O)Nc2ccccc23)cn1` ?
Reply | -6.51%

Ask | May I ask what cytotoxicity at 70.5 h has been recorded for `CN(C)C(=O)c1cccc(NC(=O)Cc2cc(F)ccc2F)n1` ?
Reply | 1.76%

Ask | May I ask what cytotoxicity at 70.5 h has been recorded for `CCn1ncc(CN(C)C(=O)c2ccn(C)n2)c1C` ?
Reply | -6.74%

Ask | May I ask what cytotoxicity at 70.5 h has been recorded for `NC(=O)CN1CC2(CCC1=O)CCN(C(=O)c1ccccc1F)CC2` ?
Reply | 33.9%

Ask | May I ask what cytotoxicity at 70.5 h has been recorded for O=C(CCCOCc1ccccc1)N1CCCC(c2ncc[nH]2)C1 (configuration not stated) ?
Reply | -22.8%

Ask | May I ask what cytotoxicity at 70.5 h has been recorded for `CCN1C[C@H]2CCN(C(=O)c3cc[nH]n3)CC[C@H]2S1(=O)=O` ?
Reply | -14.6%

Ask | May I ask what cytotoxicity at 70.5 h has been recorded for `CC1=C(C(=O)NCc2cccnc2-n2cnc3ccccc32)OCCO1` ?
Reply | -0.825%

Ask | May I ask what cytotoxicity at 70.5 h has been recorded for CN(Cc1ccco1)C(=O)CN1CCOC(Cn2cncn2)C1 (configuration not stated) ?
Reply | -3.13%

Ask | May I ask what cytotoxicity at 70.5 h has been recorded for Cc1ncc(CN2CCOC(c3ccc(-c4cc[nH]n4)cn3)C2)s1 (configuration not stated) ?
Reply | -2.9%

Ask | May I ask what cytotoxicity at 70.5 h has been recorded for `Cc1nc2c(c(N3C[C@@H](C)[C@@](C)(O)C3)n1)CCC2` ?
Reply | 22.5%

Ask | May I ask what cytotoxicity at 70.5 h has been recorded for Cn1cc(CN2CCCCC2c2ccc(-c3cccc(Cl)c3)nc2)cn1 (configuration not stated) ?
Reply | -4.26%

Ask | May I ask what cytotoxicity at 70.5 h has been recorded for `COc1ncc(NCc2cccc(C#N)c2)cc1C(N)=O` ?
Reply | -1.66%

Ask | May I ask what cytotoxicity at 70.5 h has been recorded for `O=C(NCc1cc[nH]n1)N1CCN(c2ccccc2Cl)CC1` ?
Reply | 6.1%

Ask | May I ask what cytotoxicity at 70.5 h has been recorded for Cc1cnn(C2CCCN(C(=O)Cc3cn4ccsc4n3)C2)c1 (configuration not stated) ?
Reply | -5.39%

Ask | May I ask what cytotoxicity at 70.5 h has been recorded for `Cc1ccc(S(=O)(=O)NC(=O)CCOCC(C)C)s1` ?
Reply | 8.21%

Taken from ChEMBL document CHEMBL3507680.
